- SUBJECT_OF_TEST: human GluN1/GluN2B NMDA receptors (Homo sapiens)
- Construct: expressed in transfected cells
- ASSAY_EXPLANATION: Cell-based calcium flux (FLIPR) assay on cloned human NR1/NR2B ion channels expressed in mammalian cells (standard and HTS buffer variants)
- RUN_PARAMETERS: standard assay buffer (0.5 mM MgCl2 dye loading; 137 mM NaCl, 4 mM KCl assay buffer), human GluN1/GluN2B cells, read-out: NR2B IC50 (μM) standard assay
MEASURE_NAME: IC50 (µM)

Consider the reported IC50 for these compounds:
[
  {
    "COMPOUND": "Cn1cnc(Cn2c(=O)[nH]c3ncc(-c4ccc(F)cc4)cc32)n1 [Example 141]",
    "IC50 (µM)": 1.18
  },
  {
    "COMPOUND": "Cn1c(=O)n(CC(=O)N2CCC2)c2cc(-c3cnc(C(F)(F)F)s3)cnc21 [Example 115]",
    "IC50 (µM)": 0.82
  },
  {
    "COMPOUND": "Cc1ccccc1-c1cnc2[nH]c(=O)n(CCN3CCCC3)c2c1 [Example 179]",
    "IC50 (µM)": 0.707
  },
  {
    "COMPOUND": "O=c1[nH]c2ncc(-c3cccc(C(F)(F)F)c3)cc2n1CCNC1CC1 [Example 148]",
    "IC50 (µM)": 0.505
  },
  {
    "COMPOUND": "CN(C)C(=O)Cn1c(=O)n(C)c2ncc(-c3csc(C(F)(F)F)n3)cc21 [Example 108]",
    "IC50 (µM)": 0.047
  }
]

A = O=c1[nH]c2ncc(-c3cccc(C(F)(F)F)c3)cc2n1Cc1ccncn1 [Example 23]
B = COc1cccc(-c2cnc3[nH]c(=O)n(Cc4ccccn4)c3c2)c1 [Example 288]
C = Cc1c(F)ccc(-c2cnc3c(c2)n(Cc2ccncc2)c(=O)n3C)c1F [Example 66]
Order each entry by recorded IC50, climbing from the minimum. Order the labels as requested and give them as your answer.
A, C, B

A = CN(C)C(=O)Cn1c(=O)n(C)c2ncc(-c3ccsc3C(F)(F)F)cc21 [Example 96]
B = CN(C)C(=O)Cn1c(=O)n(C)c2ncc(-c3csc(C(F)F)c3)cc21 [Example 97]
# return whichever of A and B has the smaller IC50 Give the label of your selection.
B

====

- SUBJECT_OF_TEST: human GluN1/GluN2B NMDA receptors (Homo sapiens)
- Construct: expressed in transfected cells
- ASSAY_EXPLANATION: Cell-based calcium flux (FLIPR) assay on cloned human NR1/NR2B ion channels expressed in mammalian cells (standard and HTS buffer variants)
- RUN_PARAMETERS: standard assay buffer (0.5 mM MgCl2 dye loading; 137 mM NaCl, 4 mM KCl assay buffer), human GluN1/GluN2B cells, read-out: NR2B IC50 (μM) standard assay
MEASURE_NAME: IC50 (µM)

Known results for compounds:
[
  {
    "COMPOUND": "Cc1cc(Cn2c(=O)n(C)c3ncc(-c4ccc(F)c(F)c4)cc32)no1 [Example 8]",
    "MEASURE_NAME": "IC50",
    "UNIT_ABBREVIATION": "µM",
    "QUANTITATIVE_READOUT": 0.104
  },
  {
    "COMPOUND": "O=C(Cn1c(=O)[nH]c2ncc(-c3cccc(C(F)(F)F)c3)cc21)N1CCOCC1 [Example 204]",
    "MEASURE_NAME": "IC50",
    "UNIT_ABBREVIATION": "µM",
    "QUANTITATIVE_READOUT": 0.037
  },
  {
    "COMPOUND": "Cc1c(F)ccc(-c2cnc3c(c2)n(Cc2cncnc2)c(=O)n3C)c1F [Example 69]",
    "MEASURE_NAME": "IC50",
    "UNIT_ABBREVIATION": "µM",
    "QUANTITATIVE_READOUT": 0.033
  },
  {
    "COMPOUND": "Cc1csc(-c2cnc3c(c2)n(CC(=O)N(C)C)c(=O)n3C)c1 [Example 80]",
    "MEASURE_NAME": "IC50",
    "UNIT_ABBREVIATION": "µM",
    "QUANTITATIVE_READOUT": 0.03
  },
  {
    "COMPOUND": "Cn1cc(Cn2c(=O)[nH]c3ncc(-c4ccc(F)cc4)cc32)nn1 [Example 142]",
    "MEASURE_NAME": "IC50",
    "UNIT_ABBREVIATION": "µM",
    "QUANTITATIVE_READOUT": 0.208
  }
]

1 = Cc1csc(-c2cnc3[nH]c(=O)n(Cc4nc(C)no4)c3c2)c1 [Example 127]
2 = Cc1cccc(-c2cnc3[nH]c(=O)n(CCN4CCC4)c3c2)c1C [Example 169]
3 = Cc1c(-c2cnc3[nH]c(=O)n(CCN4CCC4)c3c2)cccc1C(F)(F)F [Example 168]
4 = Cc1ccc(C(F)(F)F)cc1-c1cnc2[nH]c(=O)n(CCN3CCC3)c2c1 [Example 172]
Could you please order the items by IC50, going from the lowest number to the highest? Response field: labels, in requested order.
1, 2, 4, 3

====

- SUBJECT_OF_TEST: human GluN1/GluN2B NMDA receptors (Homo sapiens, UniProt Q13224)
- Construct: expressed in transfected cells
- Sequence (Q13224 27-1484, other chains not shown): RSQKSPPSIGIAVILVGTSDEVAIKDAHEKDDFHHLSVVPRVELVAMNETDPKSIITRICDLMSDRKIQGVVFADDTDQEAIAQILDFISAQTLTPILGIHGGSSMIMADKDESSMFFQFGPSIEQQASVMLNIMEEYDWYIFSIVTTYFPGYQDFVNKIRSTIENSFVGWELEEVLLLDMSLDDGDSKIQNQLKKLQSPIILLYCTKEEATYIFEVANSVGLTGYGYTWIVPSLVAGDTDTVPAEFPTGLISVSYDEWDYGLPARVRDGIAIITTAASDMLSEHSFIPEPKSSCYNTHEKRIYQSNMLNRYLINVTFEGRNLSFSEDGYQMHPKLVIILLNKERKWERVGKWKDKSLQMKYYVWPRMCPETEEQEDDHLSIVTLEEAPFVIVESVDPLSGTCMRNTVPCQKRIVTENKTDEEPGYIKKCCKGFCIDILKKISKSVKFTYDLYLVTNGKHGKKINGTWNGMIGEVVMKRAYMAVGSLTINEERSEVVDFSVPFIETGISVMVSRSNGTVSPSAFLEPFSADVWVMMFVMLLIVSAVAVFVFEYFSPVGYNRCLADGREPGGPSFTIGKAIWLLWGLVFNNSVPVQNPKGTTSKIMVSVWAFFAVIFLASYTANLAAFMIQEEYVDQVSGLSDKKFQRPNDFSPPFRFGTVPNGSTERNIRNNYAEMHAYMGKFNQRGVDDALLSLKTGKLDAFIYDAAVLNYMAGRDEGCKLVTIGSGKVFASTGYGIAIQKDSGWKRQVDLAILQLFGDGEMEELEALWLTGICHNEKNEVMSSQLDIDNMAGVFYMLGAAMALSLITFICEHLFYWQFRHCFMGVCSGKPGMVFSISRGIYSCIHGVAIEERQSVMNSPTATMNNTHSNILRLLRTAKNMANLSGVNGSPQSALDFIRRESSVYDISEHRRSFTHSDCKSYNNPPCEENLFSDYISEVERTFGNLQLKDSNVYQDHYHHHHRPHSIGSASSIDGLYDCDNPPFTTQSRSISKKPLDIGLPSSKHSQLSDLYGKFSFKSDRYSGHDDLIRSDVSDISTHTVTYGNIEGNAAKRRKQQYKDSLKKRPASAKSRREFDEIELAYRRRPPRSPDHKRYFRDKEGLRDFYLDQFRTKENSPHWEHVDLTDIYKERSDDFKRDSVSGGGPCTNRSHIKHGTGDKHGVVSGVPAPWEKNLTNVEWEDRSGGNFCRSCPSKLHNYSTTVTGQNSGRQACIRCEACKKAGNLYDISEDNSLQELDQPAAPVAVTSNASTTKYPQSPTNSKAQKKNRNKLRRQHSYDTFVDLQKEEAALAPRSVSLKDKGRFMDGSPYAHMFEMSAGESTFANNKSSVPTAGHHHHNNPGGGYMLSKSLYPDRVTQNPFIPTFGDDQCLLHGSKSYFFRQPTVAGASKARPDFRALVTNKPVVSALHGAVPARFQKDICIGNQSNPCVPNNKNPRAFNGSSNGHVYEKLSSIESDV
- ASSAY_EXPLANATION: Cell-based calcium flux (FLIPR) assay on cloned human NR1/NR2B ion channels expressed in mammalian cells (standard and HTS buffer variants)
- RUN_PARAMETERS: standard assay buffer (0.5 mM MgCl2 in dye loading buffer; 137 mM NaCl, 4 mM KCl in assay buffer), human GluN1/GluN2B, read-out: NR2B IC50 (μM) standard assay
MEASURE_NAME: IC50 (µM)

Sample records with IC50:
[
  {
    "COMPOUND": "Cc1c(F)ccc(-c2cnc3[nH]c(=O)n(CC(=O)N4CCC4)c3c2)c1F [Example 579]",
    "UNIT_ABBREVIATION": "µM",
    "IC50": 0.015
  },
  {
    "COMPOUND": "Cn1c(=O)n(Cc2cncc(Cl)c2)c2cc(-c3cc(F)c(F)c(F)c3)cnc21 [Example 370]",
    "UNIT_ABBREVIATION": "µM",
    "IC50": 0.131
  }
]

A = Cc1nnc(Cn2c(=O)n(C)c3ncc(-c4ccc(C(F)(F)F)s4)cc32)o1 [Example 567]
B = Cn1c(=O)n(CC(=O)N2CCC2)c2cc(-c3cc(F)cc(F)c3)cnc21 [Example 412]
Response body: label of entry with the larger IC50; valid values A , B . Select an item and report its label.
A

a = Cc1c(F)ccc(-c2cnc3c(c2)n(CC(=O)N2CC(F)(F)C2)c(=O)n3C)c1F [Example 414]
b = Cn1c(=O)n(Cc2cncc(F)c2)c2cc(-c3ccc(F)c(C(F)F)c3)cnc21 [Example 546]
Looking at recorded values for IC50, does a or b come in lower? Give the label under which the chosen entry appears.
a

====

- SUBJECT_OF_TEST: human GluN1/GluN2B NMDA receptors (Homo sapiens)
- Construct: expressed in transfected cells
- ASSAY_EXPLANATION: Cell-based calcium flux (FLIPR) assay on cloned human NR1/NR2B ion channels expressed in mammalian cells (standard and HTS buffer variants)
- RUN_PARAMETERS: standard assay buffer (0.5 mM MgCl2 in dye loading buffer; 137 mM NaCl, 4 mM KCl in assay buffer), human GluN1/GluN2B, read-out: NR2B IC50 (μM) standard assay
MEASURE_NAME: IC50 (µM)

A selection of reference data follows.
[
  {
    "SMILES_INPUT": "Cn1cc(Cn2c(=O)n(C)c3ncc(-c4ccc(C(F)(F)F)s4)cc32)nn1",
    "UNIT_ABBREVIATION": "µM",
    "QUANTITATIVE_READOUT": 0.349
  },
  {
    "SMILES_INPUT": "Cc1noc(Cn2c(=O)n(C)c3ncc(-c4ccc(C(F)(F)F)s4)cc32)n1",
    "UNIT_ABBREVIATION": "µM",
    "QUANTITATIVE_READOUT": 0.412
  }
]

P = Cc1cccc(-c2cnc3[nH]c(=O)n(CC(=O)N4CC(F)(F)C4)c3c2)c1
Q = Cc1cc(C)cc(-c2cnc3[nH]c(=O)n(Cc4cc(C)on4)c3c2)c1
Lab note: check whether P or Q has the lower measured IC50. Mark your selection by writing its label.
P

====

- SUBJECT_OF_TEST: human GluN1/GluN2B NMDA receptors (Homo sapiens)
- Construct: expressed in transfected cells
- ASSAY_EXPLANATION: Cell-based calcium flux (FLIPR) assay on cloned human NR1/NR2B ion channels expressed in mammalian cells (standard and HTS buffer variants);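 further: stable Tet-On inducible cell line, Ca2+ influx triggered by glutamate at about EC40 plus 10 µM glycine, fluorescent dye read-out over 5 min, normalized to control wells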
- RUN_PARAMETERS: HTS assay buffer (1.5 mM MgCl2 in dye loading buffer; 150 mM NaCl, 3 mM KCl in assay buffer), human GluN1/GluN2B, read-out: NR2B IC50 (μM) HTS assay
MEASURE_NAME: IC50 (µM)

[
  {
    "SMILES_INPUT": "CCOc1ccc(F)cc1-c1cnc2[nH]c(=O)n(Cc3cccc(F)c3)c2c1",
    "UNIT_ABBREVIATION": "µM",
    "IC50": 5.64
  }
]

1 = N#Cc1cccc(Cn2c(=O)[nH]c3ncc(-c4ccc(F)c(Cl)c4)cc32)c1
2 = CCOc1ccc(F)cc1-c1cnc2[nH]c(=O)n(CC(=O)NCCOC)c2c1
Record comparison, field IC50: mark the lower of 1 and 2 . Answer format: the label of the selected item.
2
(2: 1.32 µM, 1: 4.22 µM)
